Test system: female NMRI-nu mice
Assay Overview: In vivo toxicity and tolerability in mice
Setup Conditions: daily i.p., 20 days; toxic effects at 20 mg/kg WBC-15C and at 20 and 10 mg/kg WBC-11C, not at lower doses
Quantity Kind: abnormalities / toxic effects in liver and other organs at autopsy

{"Input Smiles": "Cc1nc(Sc2nnc3n2CCCCC3)c2c(-c3cccs3)csc2n1", "Result": "No other abnormalities"}
{"Input Smiles": "Cc1nc(NCC(=O)NCc2ccco2)c2c(-c3ccccc3)csc2n1", "Result": "No other abnormalities"}

====

System: glucose uptake by wild type yeast cells
Assay Overview: Zero-trans uptake of radioactive glucose in wild type yeast cells
Format: cell-based, S. cerevisiae
Setup Conditions: read-out: Ki (Dixon plot) for glucose uptake
Quantity Kind: Ki

{"Molecule": "Cc1nc(Sc2nnc3n2CCCCC3)c2c(-c3cccs3)csc2n1 [WBC-A]", "Quantity Kind": "Ki", "Result": "9.04 µM"}
{"Molecule": "CCN(C(=O)CSc1nc(C)nc2scc(-c3cccs3)c12)C1CCS(=O)(=O)C1 (centres unmarked) [WBC-2C]", "Quantity Kind": "Ki", "Result": "1.45 µM"}
